ASSAY_COMMENT: UWB1.289 Cancer Cell Toxicity qHTS against the NCATS CANVASS Library (AID 1347347); further: nearly all actives have a fitted effect of over 60% in size
CONDITION_CONTEXT: UWB1.289 viability, CellTiter-Glo luminescence, 72 h; series mostly up to 38.3 µM
Inconclusive results are not listed. Activity calls are given as the source filed them. The call rests on the fitted dose curve; in most records, active means well fitted cell-killing curve with a large enough effect; inconclusive means small, poorly fitted or top-dose-only effect; inactive means flat fitted curve, though single readings scatter. Numbered stars: 1 amine (or outer) side, 2 acyl side, 3 side chain; on linkers, the order of the positions; unused ones are H or OH. Bridge positions count the residues as written; N and C are the ends. Square brackets hold non-standard residues; d marks the D form. Peptide text beside a SMILES is read from it. ξ: configuration not given here. X1 = CCCCCCCCCC(=O)[C@H](C(=O)[*:2])[C@@H]1CNC(=O)[C@@H](N[*:1])CS1; Phe(3R-OH) = O=C([C@@H](N[*:1])[C@H](O[*:3])c1ccccc1)[*:2]; NMeTrp(4-OMe) = CN[C@@H](Cc1c[nH]c2cccc(OC)c12)C(=O)O; ξThr(3R)(O-yl) = C[C@@H](O[*:3])C(N[*:1])C(=O)[*:2]; NMeThr(3ξ) = CN[C@H](C(=O)O)C(C)O; NMeL = CN[C@@H](CC(C)C)C(=O)O; NMeV = CN[C@H](C(=O)O)C(C)C; ξIle = CC[C@H](C)C(N)C(=O)O; ξV = CC(C)C(N)C(=O)O
Choose the fitting class; nothing outside Yes (active), No (inactive) is accepted.

# example entries with known answers
{"columns": ["COMPOUND", "CATEGORY_LABEL"],
 "data": [
  ["O=Cc1ccc2n1C[C@@]1(C[C@H](O)[C@@H](CO)O1)OC2", "No"],
  ["CC(C)(Br)[C@@H](Cl)C[C@H](Br)[C@](C)(Cl)/C=C/Br", "Yes"],
  ["CC1(C)CCC[C@]2(C)[C@@H]1CC[C@@]13C[C@@H](CC[C@H]12)C(C)(O)C3 (stereo partly drawn)", "No"],
  ["C[C@@H]1C(=O)[C@]23CC[C@H]1C[C@]21O[C@H]2C(C)(C)C=CC(=O)[C@]23COC1=O", "No"],
  ["C=C(C)C(=O)O[C@H]1C[C@H](C)[C@@H](OC(C)=O)CC[C@@]2(C)O[C@@H]2[C@H]2OC(=O)C(COC(C)=O)=C12", "Yes"],
  ["COc1ccc2cc(NC(=O)C3=NO[C@H]4[C@H](O)C=C[C@@H](Cl)[C@@]4(O)C3)c(=O)oc2c1OC", "No"]
]}

Fill in: this test's call for O=C1c2c(O)cc(O)cc2O[C@@H](c2ccc(O)cc2)[C@@H]1c1c(O)cc(O)c2c(=O)cc(-c3ccc(O)c(O)c3)oc12 is ___
No

# lookup: test call for C[C@@H]1O[C@@H](Oc2c(-c3ccc(O)cc3)oc3cc(O)cc(O)c3c2=O)[C@H](O)[C@H](O)[C@H]1O
No

State the result this test recorded for C/C(=C\[C@H](C)C(=O)CCCC1CC(=O)NC(=O)C1)[C@@H]1OC(=O)/C=C/CC/C=C/C[C@@H](O)[C@@H]1C .
Yes

// param item: C/C=C/C(=O)[C@@H](C)C1=CC(=O)C2=C(O[C@@]34CC[C@H](O)C(C)(C)[C@@H]3CC[C@H](C)[C@@]4(C)C2)C1=O ; yields the recorded call
Yes

Can you look up the reported call for C[C@@H](CCC[C@]1(C)C(=O)C=C[C@]23C[C@H]4C[C@H](O[C@@]4(C)C2)C31)C(=O)N[C@@H](CO)C(=O)O (stereo partly drawn) for me?
No

Could you check what this test reported for C[C@@H]1C[C@H]2C[C@]3(CCCCN3C)[C@@H]3C[C@H]2[C@H](C1)N(C)C3 ?
No

Could you kindly confirm the outcome this assay logged for CC[C@H](C)C(NC(=O)[C@@H](NC)C(C)C)C(=O)NC1C(=O)N(C)[C@@H](C(C)O)C(=O)N[C@@H](C(C)C)C(=O)N(C)[C@@H](CC(C)C)C(=O)NC(C(C)C)C(=O)N(C)[C@@H](C(C)C)C(=O)N(C)[C@@H](Cc2c[nH]c3cccc(OC)c23)C(=O)N[C@@H](C(C)C)C(=O)N[C@@H]([C@H](O)c2ccccc2)C(=O)N[C@@H](C(C)C)C(=O)O[C@@H]1C (stereo partly drawn) (H-[NMeV][ξIle][ξThr(3R)(O-yl)][NMeThr(3ξ)]V[NMeL][ξV][NMeV][NMeTrp(4-OMe)]V[Phe(3R-OH)]V; ester 3-C) ?
No

What did the test return for CCCCCCCCCC(=O)[C@@H]1C(=O)N[C@@H](CC(C)C)C(=O)N[C@H](C)C(=O)N2CCC[C@H]2C(=O)N[C@@H](C(C)C)C(=O)N[C@H]2CS[C@H]1CNC2=O (cyclo(L[dA]PV[X1])) ?
No

Please indicate how the test categorized C[C@@H](O)[C@H]1OC(=O)C=C2[C@]3(C)[C@H]4[C@H](OC(=O)[C@@]4(C)[C@@H](O)[C@H]4O[C@H]43)[C@H]3O[C@@]231 .
Yes

Dear colleague, could you share the recorded outcome for C=C1C[C@@]23C=CC(=O)[C@@](C)(CCCC(C)C(=O)O)[C@@H]2C[C@@H]1CC3 (stereo partly drawn) when you have a moment?
No
